protocol_summary: Permeability of the compound at pH 7.4 by PAMPA assay
Format: physicochemical
experimental_setup: read-out: permeability

structure_smiles: C[C@H](Nc1ccc(-c2ccnn2C)nc1)C(=O)Nc1ccc(-c2ccccc2)cn1
Papp: 113 ×10⁻⁶ cm/s

structure_smiles: C[C@H](Nc1ccc(-c2ccnn2C)nc1)C(=O)Nc1ccc(-c2cccnc2)cn1
Papp: 50.6 ×10⁻⁶ cm/s

structure_smiles: O=C(COc1ccc(-n2ccnc2)cc1)Nc1ccc(-c2ccccc2)cc1
Papp: < 1 ×10⁻⁶ cm/s

structure_smiles: C[C@H](Nc1ccc(-c2ccnn2C)nc1)C(=O)Nc1ccc(-c2cccnc2)nc1
Papp: 26.8 ×10⁻⁶ cm/s

###

Here, each record is paired with measured IC50 data.
target_or_test_system: Cytochrome P450 3A4 (Homo sapiens)
Sequence (P08684 whole entry): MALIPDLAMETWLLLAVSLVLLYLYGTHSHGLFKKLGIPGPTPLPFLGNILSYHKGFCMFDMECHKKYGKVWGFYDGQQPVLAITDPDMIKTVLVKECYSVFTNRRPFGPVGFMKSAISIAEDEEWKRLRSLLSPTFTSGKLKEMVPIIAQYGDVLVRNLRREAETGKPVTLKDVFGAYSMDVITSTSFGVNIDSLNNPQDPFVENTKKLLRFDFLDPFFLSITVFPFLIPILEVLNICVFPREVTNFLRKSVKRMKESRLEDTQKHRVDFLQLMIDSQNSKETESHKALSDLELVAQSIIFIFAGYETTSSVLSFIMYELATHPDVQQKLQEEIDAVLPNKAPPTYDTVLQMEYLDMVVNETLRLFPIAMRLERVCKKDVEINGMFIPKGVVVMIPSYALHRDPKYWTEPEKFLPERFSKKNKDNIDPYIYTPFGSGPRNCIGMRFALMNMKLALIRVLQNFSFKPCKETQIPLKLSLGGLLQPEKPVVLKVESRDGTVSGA
protocol_summary: Inhibition of CYP3A4 (unknown origin)

structure_smiles: Cc1nccn1-c1ccc(OCC(=O)Nc2ccc(-c3ccccc3)cc2)cc1
IC50: 5.2 µM

structure_smiles: C[C@H](Nc1ccc(-c2ccnn2C)nc1)C(=O)Nc1ccc(-c2cccnc2)cn1
IC50: > 20 µM

structure_smiles: O=C(COc1ccc(-c2cnco2)cc1)Nc1ccc(-c2ccccc2)cc1
IC50: > 20 µM

###

For reference, pIC50 measured on Cytochrome P450 2D6 (Homo sapiens):
pIC50: −log10 of the molar value.

structure_smiles: C[C@H](Nc1ccc(-c2ccnn2C)nc1)C(=O)Nc1ccc(-c2cccnc2)cn1
target_or_test_system: Cytochrome P450 2D6 (Homo sapiens)
Sequence (P10635 whole entry): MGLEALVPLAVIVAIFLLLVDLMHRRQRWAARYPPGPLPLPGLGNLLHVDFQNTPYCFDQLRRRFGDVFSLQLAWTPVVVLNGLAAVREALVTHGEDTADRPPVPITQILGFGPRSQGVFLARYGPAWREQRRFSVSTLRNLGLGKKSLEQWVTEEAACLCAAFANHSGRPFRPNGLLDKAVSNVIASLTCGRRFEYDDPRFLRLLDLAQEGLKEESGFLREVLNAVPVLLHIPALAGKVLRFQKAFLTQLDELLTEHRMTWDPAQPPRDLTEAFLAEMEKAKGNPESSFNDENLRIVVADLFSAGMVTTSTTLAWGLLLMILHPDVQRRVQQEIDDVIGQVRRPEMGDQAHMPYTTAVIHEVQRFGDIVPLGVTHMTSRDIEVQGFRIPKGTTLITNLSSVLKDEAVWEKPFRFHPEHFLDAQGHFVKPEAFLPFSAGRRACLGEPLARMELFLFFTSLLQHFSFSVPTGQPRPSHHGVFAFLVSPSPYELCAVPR
pIC50: 5.10
--
structure_smiles: O=C(COc1ccc(-c2cnco2)cc1)Nc1ccc(-c2ccccc2)cc1
target_or_test_system: Cytochrome P450 2D6 (Homo sapiens)
pIC50: < 4.70
--
structure_smiles: C[C@H](Nc1ccc(-c2ccnn2C)nc1)C(=O)Nc1ccc(-c2ccccc2)cn1
target_or_test_system: Cytochrome P450 2D6 (Homo sapiens)
pIC50: < 4.70
--
structure_smiles: Cn1nccc1-c1ccc(OCC(=O)Nc2ccc(-c3ccccc3)cc2)cc1
target_or_test_system: Cytochrome P450 2D6 (Homo sapiens)
pIC50: < 4.70

###

target_or_test_system: Protein-serine O-palmitoleoyltransferase porcupine (Homo sapiens, UniProt Q9H237)
Sequence (Q9H237 whole entry): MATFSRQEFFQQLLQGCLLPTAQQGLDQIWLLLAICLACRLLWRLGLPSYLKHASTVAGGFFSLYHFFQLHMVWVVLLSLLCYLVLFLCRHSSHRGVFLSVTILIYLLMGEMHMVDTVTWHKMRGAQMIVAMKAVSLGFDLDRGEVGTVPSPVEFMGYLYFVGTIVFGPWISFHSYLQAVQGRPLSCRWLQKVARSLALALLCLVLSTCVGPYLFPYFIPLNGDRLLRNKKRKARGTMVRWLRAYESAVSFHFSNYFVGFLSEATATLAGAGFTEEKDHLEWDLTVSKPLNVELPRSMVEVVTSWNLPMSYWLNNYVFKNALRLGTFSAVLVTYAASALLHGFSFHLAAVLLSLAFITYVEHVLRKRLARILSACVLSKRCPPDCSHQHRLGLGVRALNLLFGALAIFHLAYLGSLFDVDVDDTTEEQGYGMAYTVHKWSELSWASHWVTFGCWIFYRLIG
protocol_summary: Inhibition of porcupine (unknown origin) expressed in HEK293-STF3A cells assessed as inhibition of Wnt signaling by measuring decrease in beta-catenin-mediated transcriptional activity after 24 hrs by Steady-Glo luciferase assay
Hi! Could you tag entries with IC50 below 4 nM as y, and those at or above as n? Much appreciated.

structure_smiles: O=C(Nc1ccc(-c2ccccc2)cc1)[C@H]1CCCN1c1ccc(-n2ccnc2)cc1
answer_label: n
//
structure_smiles: C[C@H](Nc1ccc(-c2ccnn2C)nc1)C(=O)Nc1ccc(-c2cccnc2)nc1
answer_label: n
//
structure_smiles: O=C(COc1ccc(-c2cnco2)cc1)Nc1ccc(-c2ccccc2)cc1
answer_label: n
//
structure_smiles: Cc1nccn1-c1ccc(OCC(=O)Nc2ccc(-c3ccccc3)cc2)cc1
answer_label: y
//
structure_smiles: C[C@H](Nc1ccc(-c2ccnn2C)nc1)C(=O)Nc1ccc(-c2cccnc2)cn1
answer_label: y
//
structure_smiles: C[C@H](Nc1ccc(-n2ccnc2)cc1)C(=O)Nc1ccc(-c2ccccc2)cn1
answer_label: n
//
structure_smiles: C[C@@H](Oc1ccc(-n2ccnc2)cc1)C(=O)Nc1ccc(-c2ccccc2)cc1
answer_label: n
//
structure_smiles: O=C(Nc1ccc(-c2ccccc2)cc1)[C@@H]1CCCN1c1ccc(-n2ccnc2)cc1
answer_label: n
